# System: BV-2
# ASSAY METHOD TEXT: Cytotoxicity against mouse BV-2 cells
# Assay type: cell-based
READOUT KIND: Activity

CC(=O)O[C@@H]1[C@@]2(CO2)[C@@H]2CC[C@H]3[C@]45CCCC(C)(C)[C@H]4[C@H](OC(C)=O)[C@@](O)(OC5)[C@]13C2	Non-Toxic
C=C1[C@@H]2CC[C@H]3[C@]45CCCC(C)(C)[C@H]4[C@H](O)[C@@](O)(OC5)[C@]3(C2)[C@@H]1O	Non-Toxic
CC(=O)O[C@@H]1[C@@]2(CO2)[C@@H]2CC[C@H]3[C@]45CCCC(C)(C)[C@H]4[C@H](OC(C)=O)[C@@](O)(OC5)[C@]13[C@@H]2O	Non-Toxic
C=C1[C@@H](OC(C)=O)[C@]23[C@H](O)[C@H]1CC[C@H]2[C@@]12CO[C@]3(O)[C@@H](O)[C@@H]1C(C)(C)CC[C@@H]2OC(C)=O	Non-Toxic
CC(=O)O[C@H]1[C@]2(CO2)[C@@H]2CC[C@H]3[C@]45CCCC(C)(C)[C@H]4[C@H](OC(C)=O)[C@@](O)(OC5)[C@@]31C2	Non-Toxic

We now examine a further molecule.
Input C=C1[C@@H]2CC[C@H]3[C@]45CCCC(C)(C)[C@H]4[C@H](OC(C)=O)[C@@](O)(OC5)[C@]3(C2)[C@@H]1OC(C)=O . Output Activity: Non-Toxic
